# Tested on: 242566-281-R-J2-PDC complex spheroid viability
# TEST_NAME: Anticancer human tumor 242566-281-R-J2-PDC patient-derived pancreatic carcinoma cell line growth inhibition [CLK]
# ASSAY_SETUP: second compound 1 µM; first compound 1 µM; stronger effect = lower value
READOUT_TYPE: viability, T/C (%)

compound="CC(CO)NC(=O)c1cc(-c2ccc(Cl)cc2)nn(-c2cnn(C)c2)c1=O (stereo not drawn) + CNC(=O)c1ccc(Nc2nc(OC3CCCC3)c3c(-c4ccc5nc(C)oc5c4)c[nH]c3n2)c(OC)c1" readout_type="viability, T/C" value_reported=79.2
compound="O=c1[nH]cc(F)c(=O)[nH]1 + CN1CCN(c2cc(C(=O)Nc3cc4cc(-c5cnn(C)c5)ccc4cn3)ccn2)CC1" readout_type="viability, T/C" value_reported=4.22
compound="COC1C=CCC(C)C(C)S(=O)(=O)NC(=O)c2ccc3c(c2)N(CC2CCC21)CC1(CCCc2cc(Cl)ccc21)CO3 (stereo not drawn) + CNC(=O)c1ccc(Nc2nc(OC3CCCC3)c3c(-c4ccc5nc(C)oc5c4)c[nH]c3n2)c(OC)c1" readout_type="viability, T/C" value_reported=29.1

----------
# Test system: 242566-281-R-J2-PDC complex spheroid viability
# TEST_NAME: Anticancer human tumor 242566-281-R-J2-PDC cell line growth inhibition [CLK];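 note: spheroids exposed to compounds for 7 days before readout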;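 for viability, T/C: 100% = DMSO vehicle control wells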
# ASSAY_SETUP: second compound 0.0316 µM; first compound 0.1 µM; stronger effect = lower value
Entries and their viability, T/C
READOUT_TYPE: viability, T/C (%)

compound="C=C(F)C(=O)N1CCN(c2nc(OCC3CCCN3C)nc3c2CCN(c2cccc4cccc(Cl)c24)C3)CC1CC#N (stereo not drawn) + CNC(=O)c1ccc(Nc2nc(OC3CCCC3)c3c(-c4ccc5nc(C)oc5c4)c[nH]c3n2)c(OC)c1" tgt="242566-281-R-J2-PDC complex spheroid viability" readout_type="viability, T/C" value_reported=101
compound="CCN1CCN(Cc2ccc(Nc3ncc(F)c(-c4cc(F)c5nc(C)n(C(C)C)c5c4)n3)nc2)CC1 + CNC(=O)c1ccc(Nc2nc(OC3CCCC3)c3c(-c4ccc5nc(C)oc5c4)c[nH]c3n2)c(OC)c1" tgt="242566-281-R-J2-PDC complex spheroid viability" readout_type="viability, T/C" value_reported=126
compound="COc1c(OCCCN2CCOCC2)ccc2c3n(c(=NC(=O)c4cnc(N)nc4)nc12)CCN3 + CN1CCN(c2cc(C(=O)Nc3cc4cc(-c5cnn(C)c5)ccc4cn3)ccn2)CC1" tgt="242566-281-R-J2-PDC complex spheroid viability" readout_type="viability, T/C" value_reported=22.1

----------
# System: 242566-281-R-J2-PDC complex spheroid viability
# TEST_NAME: Anticancer human tumor 242566-281-R-J2-PDC cell line growth inhibition [CLK];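 note: spheroids exposed to compounds for 7 days before readout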;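 for viability, T/C: 100% = DMSO vehicle control wells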
# ASSAY_SETUP: second compound 0.0316 µM; first compound 0.1 µM; stronger effect = lower value
viability, T/C values for the compounds below.
READOUT_TYPE: viability, T/C (%)

compound="CCN1CCN(Cc2ccc(Nc3ncc(F)c(-c4cc(F)c5nc(C)n(C(C)C)c5c4)n3)nc2)CC1 + CN1CCN(c2cc(C(=O)Nc3cc4cc(-c5cnn(C)c5)ccc4cn3)ccn2)CC1" readout_type="viability, T/C" value_reported=109
compound="COc1c(OCCCN2CCOCC2)ccc2c3n(c(=NC(=O)c4cnc(N)nc4)nc12)CCN3 + CNC(=O)c1ccc(Nc2nc(OC3CCCC3)c3c(-c4ccc5nc(C)oc5c4)c[nH]c3n2)c(OC)c1" readout_type="viability, T/C" value_reported=31.1
compound="COc1cccc2c1C(=O)c1c(O)c3c(c(O)c1C2=O)CC(O)(C(=O)CO)CC3OC1CC(N)C(O)C(C)O1 (stereo not given) + CN1CCN(c2cc(C(=O)Nc3cc4cc(-c5cnn(C)c5)ccc4cn3)ccn2)CC1" readout_type="viability, T/C" value_reported=31.7
compound="Nc1ccn(C2OC(CO)C(O)C2(F)F)c(=O)n1 (stereo not given) + CN1CCN(c2cc(C(=O)Nc3cc4cc(-c5cnn(C)c5)ccc4cn3)ccn2)CC1" readout_type="viability, T/C" value_reported=20.6
compound="CC(CO)NC(=O)c1cc(-c2ccc(Cl)cc2)nn(-c2cnn(C)c2)c1=O (stereo not given) + CNC(=O)c1ccc(Nc2nc(OC3CCCC3)c3c(-c4ccc5nc(C)oc5c4)c[nH]c3n2)c(OC)c1" readout_type="viability, T/C" value_reported=105

----------
# Test system: 242566-281-R-J2-PDC complex spheroid viability
# TEST_NAME: Anticancer human tumor 242566-281-R-J2-PDC cell line growth inhibition [CLK];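 note: spheroids exposed to compounds for 7 days before readout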;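 for viability, T/C: 100% = DMSO vehicle control wells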
# ASSAY_SETUP: second compound 0.1 µM; first compound 3.16 µM; stronger effect = lower value
API: label(entry) gives rule met if the entry's viability, T/C is strictly smaller than 90%; on equality or larger values it gives rule not met.

compound="COc1ccc([C@@H](O)c2cc(-c3ncnc4cc(N5CCOCC5)ccc34)c(F)cc2Cl)nn1 + CN1CCN(c2cc(C(=O)Nc3cc4cc(-c5cnn(C)c5)ccc4cn3)ccn2)CC1" class="rule met"
compound="CC(=O)O[C@H]1C(=O)[C@@]2(C)[C@H]([C@H](OC(=O)c3ccccc3)[C@]3(O)C[C@H](OC(=O)[C@H](O)[C@@H](NC(=O)c4ccccc4)c4ccccc4)C(C)=C1C3(C)C)[C@]1(OC(C)=O)CO[C@@H]1C[C@@H]2O + CN1CCN(c2cc(C(=O)Nc3cc4cc(-c5cnn(C)c5)ccc4cn3)ccn2)CC1" class="rule met"
compound="C=C(F)C(=O)N1CCN(c2nc(OCC3CCCN3C)nc3c2CCN(c2cccc4cccc(Cl)c24)C3)CC1CC#N (stereo not given) + CNC(=O)c1ccc(Nc2nc(OC3CCCC3)c3c(-c4ccc5nc(C)oc5c4)c[nH]c3n2)c(OC)c1" class="rule not met"

----------
# System: 242566-281-R-J2-PDC complex spheroid viability
# TEST_NAME: Anticancer human tumor 242566-281-R-J2-PDC cell line growth inhibition [CLK];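 note: spheroids exposed to compounds for 7 days before readout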;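 for viability, T/C: 100% = DMSO vehicle control wells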
# ASSAY_SETUP: second compound 1 µM; first compound 1 µM; stronger effect = lower value
Entries and their viability, T/C values follow.
READOUT_TYPE: viability, T/C (%)

molecule="CC1(C)CCC(CN2CCN(c3ccc(C(=O)NS(=O)(=O)c4ccc(NCC5CCOCC5)c([N+](=O)[O-])c4)c(Oc4cnc5[nH]ccc5c4)c3)CC2)=C(c2ccc(Cl)cc2)C1 + CN1CCN(c2cc(C(=O)Nc3cc4cc(-c5cnn(C)c5)ccc4cn3)ccn2)CC1" value_reported=6.22
molecule="CC(CO)NC(=O)c1cc(-c2ccc(Cl)cc2)nn(-c2cnn(C)c2)c1=O (centres undefined) + CN1CCN(c2cc(C(=O)Nc3cc4cc(-c5cnn(C)c5)ccc4cn3)ccn2)CC1" value_reported=5.04
molecule="CCCS(=O)(=O)Nc1ccc(F)c(C(=O)c2c[nH]c3ncc(-c4ccc(Cl)cc4)cc23)c1F + CN1CCN(c2cc(C(=O)Nc3cc4cc(-c5cnn(C)c5)ccc4cn3)ccn2)CC1" value_reported=5.32
molecule="CC(Nc1ccc2c(c1)OCCn1cc(N3C(=O)OCC3C(F)F)nc1-2)C(N)=O (centres undefined) + CN1CCN(c2cc(C(=O)Nc3cc4cc(-c5cnn(C)c5)ccc4cn3)ccn2)CC1" value_reported=2.95

----------
# System: 242566-281-R-J2-PDC complex spheroid viability
# TEST_NAME: Anticancer human tumor 242566-281-R-J2-PDC cell line growth inhibition [CLK];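 note: spheroids exposed to compounds for 7 days before readout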
# ASSAY_SETUP: curve of first compound; second compound 3.16 µM
Below, each entry is listed alongside its reported IC50.
READOUT_TYPE: IC50

compound="Cn1ncnc1[C@H]1c2n[nH]c(=O)c3cc(F)cc(c23)N[C@@H]1c1ccc(F)cc1 + CN1CCN(c2cc(C(=O)Nc3cc4cc(-c5cnn(C)c5)ccc4cn3)ccn2)CC1" readout_type=IC50 value_reported="< 0.316 nM"
compound="CCCS(=O)(=O)Nc1ccc(F)c(C(=O)c2c[nH]c3ncc(-c4ccc(Cl)cc4)cc23)c1F + CNC(=O)c1ccc(Nc2nc(OC3CCCC3)c3c(-c4ccc5nc(C)oc5c4)c[nH]c3n2)c(OC)c1" readout_type=IC50 value_reported="379 nM"
compound="Nc1ccccc1NC(=O)c1ccc(CNC(=O)OCc2cccnc2)cc1 + CNC(=O)c1ccc(Nc2nc(OC3CCCC3)c3c(-c4ccc5nc(C)oc5c4)c[nH]c3n2)c(OC)c1" readout_type=IC50 value_reported="1670 nM"
compound="CC(C)CC(NC(=O)C(Cc1ccccc1)NC(=O)c1cnccn1)B(O)O (stereo unspecified) + CN1CCN(c2cc(C(=O)Nc3cc4cc(-c5cnn(C)c5)ccc4cn3)ccn2)CC1" readout_type=IC50 value_reported="< 0.949 nM"
compound="COc1c(OCCCN2CCOCC2)ccc2c3n(c(=NC(=O)c4cnc(N)nc4)nc12)CCN3 + CN1CCN(c2cc(C(=O)Nc3cc4cc(-c5cnn(C)c5)ccc4cn3)ccn2)CC1" readout_type=IC50 value_reported="< 3.16 nM"
compound="C=CC(=O)Nc1cc(Nc2nccc(-c3cn(C)c4ccccc34)n2)c(OC)cc1N(C)CCN(C)C + CNC(=O)c1ccc(Nc2nc(OC3CCCC3)c3c(-c4ccc5nc(C)oc5c4)c[nH]c3n2)c(OC)c1" readout_type=IC50 value_reported="2.72 nM"
compound="CCc1c2c(nc3ccc(O)cc13)-c1cc3c(c(=O)n1C2)COC(=O)[C@]3(O)CC + CN1CCN(c2cc(C(=O)Nc3cc4cc(-c5cnn(C)c5)ccc4cn3)ccn2)CC1" readout_type=IC50 value_reported="< 3.16 nM"
compound="CCN1CCN(Cc2ccc(Nc3ncc(F)c(-c4cc(F)c5nc(C)n(C(C)C)c5c4)n3)nc2)CC1 + CN1CCN(c2cc(C(=O)Nc3cc4cc(-c5cnn(C)c5)ccc4cn3)ccn2)CC1" readout_type=IC50 value_reported="< 3.16 nM"
compound="COc1cccc2c1C(=O)c1c(O)c3c(c(O)c1C2=O)CC(O)(C(=O)CO)CC3OC1CC(N)C(O)C(C)O1 (stereo unspecified) + CN1CCN(c2cc(C(=O)Nc3cc4cc(-c5cnn(C)c5)ccc4cn3)ccn2)CC1" readout_type=IC50 value_reported="< 31.6 nM"
compound="C#Cc1c(F)ccc2cc(O)cc(-c3ncc4c(N5CC6CCC(C5)N6)nc(OCC56CCCN5CC(F)C6)nc4c3F)c12 (stereo unspecified) + CN1CCN(c2cc(C(=O)Nc3cc4cc(-c5cnn(C)c5)ccc4cn3)ccn2)CC1" readout_type=IC50 value_reported="< 31.6 nM"
compound="CCCS(=O)(=O)Nc1ccc(F)c(C(=O)c2c[nH]c3ncc(-c4ccc(Cl)cc4)cc23)c1F + CN1CCN(c2cc(C(=O)Nc3cc4cc(-c5cnn(C)c5)ccc4cn3)ccn2)CC1" readout_type=IC50 value_reported="< 31.6 nM"
compound="NC(=O)C(=Cn1cnc(-c2cc(C(F)(F)F)cc(C(F)(F)F)c2)n1)c1cncnc1 + CNC(=O)c1ccc(Nc2nc(OC3CCCC3)c3c(-c4ccc5nc(C)oc5c4)c[nH]c3n2)c(OC)c1" readout_type=IC50 value_reported="409 nM"
compound="Nc1ccn(C2OC(CO)C(O)C2(F)F)c(=O)n1 (stereo unspecified) + CN1CCN(c2cc(C(=O)Nc3cc4cc(-c5cnn(C)c5)ccc4cn3)ccn2)CC1" readout_type=IC50 value_reported="< 31.6 nM"
compound="COc1ccc([C@@H](O)c2cc(-c3ncnc4cc(N5CCOCC5)ccc34)c(F)cc2Cl)nn1 + CN1CCN(c2cc(C(=O)Nc3cc4cc(-c5cnn(C)c5)ccc4cn3)ccn2)CC1" readout_type=IC50 value_reported="< 31.6 nM"
compound="COC1C=CCC(C)C(C)S(=O)(=O)NC(=O)c2ccc3c(c2)N(CC2CCC21)CC1(CCCc2cc(Cl)ccc21)CO3 (stereo unspecified) + CNC(=O)c1ccc(Nc2nc(OC3CCCC3)c3c(-c4ccc5nc(C)oc5c4)c[nH]c3n2)c(OC)c1" readout_type=IC50 value_reported="< 31.6 nM"
compound="COC1C=CCC(C)C(C)S(=O)(=O)NC(=O)c2ccc3c(c2)N(CC2CCC21)CC1(CCCc2cc(Cl)ccc21)CO3 (stereo unspecified) + CN1CCN(c2cc(C(=O)Nc3cc4cc(-c5cnn(C)c5)ccc4cn3)ccn2)CC1" readout_type=IC50 value_reported="< 31.6 nM"
compound="COc1ccc([C@@H](O)c2cc(-c3ncnc4cc(N5CCOCC5)ccc34)c(F)cc2Cl)nn1 + CNC(=O)c1ccc(Nc2nc(OC3CCCC3)c3c(-c4ccc5nc(C)oc5c4)c[nH]c3n2)c(OC)c1" readout_type=IC50 value_reported="129 nM"
compound="C#Cc1c(F)ccc2cc(O)cc(-c3ncc4c(N5CC6CCC(C5)N6)nc(OCC56CCCN5CC(F)C6)nc4c3F)c12 (stereo unspecified) + CNC(=O)c1ccc(Nc2nc(OC3CCCC3)c3c(-c4ccc5nc(C)oc5c4)c[nH]c3n2)c(OC)c1" readout_type=IC50 value_reported="< 31.6 nM"
compound="O=C(c1cc(Cc2n[nH]c(=O)c3ccccc23)ccc1F)N1CCN(C(=O)C2CC2)CC1 + CNC(=O)c1ccc(Nc2nc(OC3CCCC3)c3c(-c4ccc5nc(C)oc5c4)c[nH]c3n2)c(OC)c1" readout_type=IC50 value_reported="> 10000 nM"
compound="Nc1ccccc1NC(=O)c1ccc(CNC(=O)OCc2cccnc2)cc1 + CN1CCN(c2cc(C(=O)Nc3cc4cc(-c5cnn(C)c5)ccc4cn3)ccn2)CC1" readout_type=IC50 value_reported="< 31.6 nM"
compound="COc1c(OCCCN2CCOCC2)ccc2c3n(c(=NC(=O)c4cnc(N)nc4)nc12)CCN3 + CNC(=O)c1ccc(Nc2nc(OC3CCCC3)c3c(-c4ccc5nc(C)oc5c4)c[nH]c3n2)c(OC)c1" readout_type=IC50 value_reported="< 3.16 nM"

Value source: PubChem BioAssay AID2060622
